Form field: IC50 (one value per entry).
# Measurement Target: human PCSK9 / human LDLR EGFa domain interaction (Homo sapiens (Human), UniProt Q8NBP7)
# Sequence (Q8NBP7 153-692): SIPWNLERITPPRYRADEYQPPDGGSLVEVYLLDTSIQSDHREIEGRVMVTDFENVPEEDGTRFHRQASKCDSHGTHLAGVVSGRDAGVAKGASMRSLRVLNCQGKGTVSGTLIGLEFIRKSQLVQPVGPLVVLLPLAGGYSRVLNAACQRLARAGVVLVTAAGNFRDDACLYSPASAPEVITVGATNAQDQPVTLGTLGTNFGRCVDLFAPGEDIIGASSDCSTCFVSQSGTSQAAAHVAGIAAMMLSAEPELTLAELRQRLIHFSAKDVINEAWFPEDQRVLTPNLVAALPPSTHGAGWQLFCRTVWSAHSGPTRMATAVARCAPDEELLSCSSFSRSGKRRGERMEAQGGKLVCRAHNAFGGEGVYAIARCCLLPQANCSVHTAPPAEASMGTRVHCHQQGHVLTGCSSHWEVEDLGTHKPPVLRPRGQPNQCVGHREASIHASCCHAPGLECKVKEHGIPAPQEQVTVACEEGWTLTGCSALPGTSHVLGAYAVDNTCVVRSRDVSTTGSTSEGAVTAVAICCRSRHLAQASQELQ
# Sequence (Q8NBP7 31-152 partner): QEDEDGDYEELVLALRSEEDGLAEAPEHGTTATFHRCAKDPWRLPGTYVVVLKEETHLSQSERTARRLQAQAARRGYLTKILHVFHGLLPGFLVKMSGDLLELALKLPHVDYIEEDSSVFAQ
# Assay Protocol: TR-FRET assay of inhibition of the PCSK9-LDLR protein-protein interaction
# Assay type: binding
# Run Parameters: TR-FRET, 20 nM human PCSK9, 20 nM human LDLR EGFa domain, 2 hours room temperature; read-out: IC50
# Procedure: A time-resolved fluorescence resonance energy (TR-FRET) assay was used to measure inhibition of the PCSK9-LDLR protein-protein interaction. […] Compounds were tested in dose-response and concentrations giving half-maximal inhibition calculated using a 4-parameter fit equation.
Starred links: 1 amine or outer side, 2 acyl side, 3 side chain; linkers in the order of their positions; H or OH if unused. Positions of bridges follow the written chain, without caps; N, C: chain ends. Non-standard residues stand in square brackets, D forms with d. Residues, ends and D or L forms follow the SMILES beside them. Pro(trans-4-Ph) = O=C(O)[C@@H]1C[C@@H](c2ccccc2)CN1; Pro(cis-4-OPh) = O=C(O)[C@@H]1C[C@H](Oc2ccccc2)CN1; Phe(4-COOH) = N[C@@H](Cc1ccc(C(=O)O)cc1)C(=O)O; Trp(5-F) = N[C@@H](Cc1c[nH]c2ccc(F)cc12)C(=O)O; Trp(6-F) = N[C@@H](Cc1c[nH]c2cc(F)ccc12)C(=O)O; dTrp(5-F) = N[C@H](Cc1c[nH]c2ccc(F)cc12)C(=O)O; Trp(7-aza) = N[C@@H](Cc1c[nH]c2ncccc12)C(=O)O; X16 = O=C([C@H](CCCCCC=[*:3])N[*:1])[*:2]; X4 = O=C(CCSCc1cccc(CSCCN[*:1])c1)[*:2]; Hag = O=C([C@H](CCC=[*:3])N[*:1])[*:2]; mXylylene = c1cc(C[*:1])cc(C[*:2])c1; AEF = NCCOc1ccc(C[C@H](N)C(=O)O)cc1; aThr = C[C@H](O)[C@H](N)C(=O)O; d(αMeP) = C[C@]1(C(=O)O)CCCN1; Tle = CC(C)(C)[C@H](N)C(=O)O; αMeP = C[C@@]1(C(=O)O)CCCN1; Orn = NCCC[C@H](N)C(=O)O; Mpa = O=C(O)CCS

Reference set, count: 5
C[C@@]12CCCN1C(=O)[C@H](Cc1c[nH]c3ncccc13)NC(=O)[C@H](Cc1cnc[nH]1)NC(=O)[C@H](CC(=O)O)NC(=O)[C@H](Cc1c[nH]c3ccc(F)cc13)NC(=O)[C@H](Cc1c[nH]c3ccc(F)cc13)NC(=O)CNC(=O)[C@H](CCCCN)NC(=O)CCSCc1cccc(c1)CSC[C@@H](C(N)=O)NC2=O [Compound 360] ([Mpa]KG[Trp(5-F)][Trp(5-F)]DH[Trp(7-aza)][αMeP]C-NH2; linker 1-10 via mXylylene) : 0.1 to 100 nM
CC(=O)N[C@H]1Cc2cn(nn2)-c2ccc(cc2)C[C@@H](C(N)=O)NC(=O)[C@]2(C)CCCN2C(=O)[C@H](Cc2ccc(O)cc2)NC(=O)[C@H](Cc2cnc[nH]2)NC(=O)[C@H](CC(=O)O)NC(=O)[C@H](Cc2c[nH]c3ccc(F)cc23)NC(=O)[C@H](Cc2c[nH]c3ccc(F)cc23)NC(=O)CNC(=O)[C@H](C)NC1=O [Compound 334] : 21000 to 50000 nM
COc1ccc(C[C@H]2NC(=O)[C@@H](Cc3c[nH]cn3)NC(=O)[C@@H](CC(=O)O)NC(=O)[C@@H](Cc3c[nH]c4ccc(F)cc34)NC(=O)[C@@H](Cc3c[nH]c4ccc(F)cc34)NC(=O)[C@H](C(C)(C)C)NC(=O)[C@@H](CCCCN)NC(=O)CCSCc3cccc(c3)CSCCNC(=O)[C@@]3(C)CCCN3C2=O)cc1 [Compound 362] (cyclo([Tle][dTrp(5-F)][dTrp(5-F)][dD][dH][dY](Me)[d(αMeP)][X4][dK])) : 0.1 to 100 nM
CC(=O)N[C@H]1CCCNC(=O)c2ccc(cc2)C[C@@H](C(N)=O)NC(=O)[C@]2(C)CCCN2C(=O)[C@H](Cc2ccc(O)cc2)NC(=O)[C@H](Cc2cnc[nH]2)NC(=O)[C@H](CC(=O)O)NC(=O)[C@H](Cc2c[nH]c3cc(F)ccc23)NC(=O)[C@H](Cc2c[nH]c3ccc(F)cc23)NC(=O)CNC(=O)[C@H](C)NC1=O [Compound 314] (Ac-[Orn]AG[Trp(5-F)][Trp(6-F)]DHY[αMeP][Phe(4-COOH)]-NH2; lactam 1-10) : 100 to 1000 nM
COc1ccc(C[C@@H]2NC(=O)[C@H]([C@@H](C)O)NC(=O)[C@@H]3CCCCC/C=C/CC[C@H](NC(=O)[C@@H](C)NC(=O)[C@H](C)NC(=O)CCSCc4cccc(c4)CSCCNC(=O)[C@]4(C)CCCN4C2=O)C(=O)N[C@@H](Cc2c[nH]c4ccc(F)cc24)C(=O)N3)cc1 [Compound 496] (cyclo(A[dA][Hag][Trp(5-F)][X16]TY(Me)[αMeP][X4]); staple (E) 3-5) : 100 to 1000 nM

For record NCCCC[C@@H]1NC(=O)CCSCc2cccc(c2)CSC[C@@H](C(N)=O)NC(=O)[C@@H]2C[C@@H](c3ccccc3)CN2C(=O)[C@H](Cc2ccc(O)cc2)NC(=O)[C@H](Cc2c[nH]cn2)NC(=O)[C@H](CC(=O)O)NC(=O)[C@H](Cc2c[nH]c3ccc(F)cc23)NC(=O)[C@H](Cc2c[nH]c3ccc(F)cc23)NC(=O)CNC1=O [Compound 293] ([Mpa]KG[Trp(5-F)][Trp(5-F)]DHY[Pro(trans-4-Ph)]C-NH2; linker 1-10 via mXylylene) the listed IC50 is 0.1 to 100 nM

For record NCCCC[C@@H]1NC(=O)CCSCc2cccc(c2)CSC[C@@H](C(N)=O)NC(=O)[C@@H]2CCCN2C(=O)[C@H](Cc2ccc(OCCN)cc2)NC(=O)[C@H](Cc2c[nH]cn2)NC(=O)[C@H](CC(=O)O)NC(=O)[C@H](Cc2c[nH]c3ccc(F)cc23)NC(=O)[C@H](Cc2c[nH]c3ccc(F)cc23)NC(=O)CNC1=O [Compound 265] ([Mpa]KG[Trp(5-F)][Trp(5-F)]DH[AEF]PC-NH2; linker 1-10 via mXylylene) the listed IC50 is 100 to 1000 nM

For record NCCCC[C@@H]1NC(=O)CCSCc2cccc(c2)CSC[C@@H](C(N)=O)NC(=O)[C@@H]2C[C@H](Oc3ccccc3)CN2C(=O)[C@H](Cc2ccc(O)cc2)NC(=O)[C@H](Cc2cnc[nH]2)NC(=O)[C@H](CC(=O)O)NC(=O)[C@H](Cc2c[nH]c3ccc(F)cc23)NC(=O)[C@H](Cc2c[nH]c3ccc(F)cc23)NC(=O)CNC1=O [Compound 367] ([Mpa]KG[Trp(5-F)][Trp(5-F)]DHY[Pro(cis-4-OPh)]C-NH2; linker 1-10 via mXylylene) the listed IC50 is 0.1 to 100 nM

For record C[C@H](O)[C@@H]1NC(=O)[C@@H]2CCCN2C(=O)[C@H](Cc2c[nH]c3ccc(F)cc23)NC(=O)[C@H](Cc2c[nH]c3ccc(F)cc23)NC(=O)CNC(=O)[C@H](CCCCN)NC(=O)CCSCc2cccc(c2)CSC[C@@H](C(N)=O)NC(=O)[C@]2(C)CCCN2C(=O)[C@H](Cc2ccc(O)cc2)NC1=O [Compound 050] ([Mpa]KG[Trp(5-F)][Trp(5-F)]P[aThr]Y[αMeP]C-NH2; linker 1-10 via mXylylene) the listed IC50 is 21000 to 50000 nM

For record NCCCC[C@@H]1NC(=O)CCCCn2cc(nn2)CC[C@@H](C(N)=O)NC(=O)[C@@H]2CCCN2C(=O)[C@H](Cc2ccc(O)cc2)NC(=O)[C@H](Cc2c[nH]cn2)NC(=O)[C@H](CC(=O)O)NC(=O)[C@H](Cc2c[nH]c3ccc(F)cc23)NC(=O)[C@H](Cc2c[nH]c3ccc(F)cc23)NC(=O)CNC1=O [Compound 185] the listed IC50 is 0.1 to 100 nM

###

# Measurement Target: PCSK9 (Homo sapiens (Human))
# Sequence (Q8NBP7 153-692): as the sequence (Q8NBP7 153-692) above
# Assay Protocol: PCSK9 Alexa FRET Standard assay (displacement of AlexaFluor647 tagged cyclic peptide Reagent A)
# Format: binding
# Run Parameters: PCSK9 Alexa FRET Standard assay, 0.5 nM PCSK9, 20 nM AF cyclic peptide Reagent A; read-out: IC50
Starred links: 1 amine or outer side, 2 acyl side, 3 side chain; linkers in the order of their positions; H or OH if unused. Positions of bridges follow the written chain, without caps; N, C: chain ends. Non-standard residues stand in square brackets, D forms with d. Residues, ends and D or L forms follow the SMILES beside them. Phe(4-guanidino) = N=C(N)Nc1ccc(C[C@H](N)C(=O)O)cc1; Ala(imidazol-2-yl) = N[C@@H](Cc1ncc[nH]1)C(=O)O; Trp(5-F) = N[C@@H](Cc1c[nH]c2ccc(F)cc12)C(=O)O; X4 = O=C(CCSCc1cccc(CSCCN[*:1])c1)[*:2]; mXylylene = c1cc(C[*:1])cc(C[*:2])c1; AEF = NCCOc1ccc(C[C@H](N)C(=O)O)cc1; X8 = Clc1cc(C[*:1])cc(C[*:2])c1; αMeP = C[C@@]1(C(=O)O)CCCN1; Mpa = O=C(O)CCS
Form field: IC50 (one value per entry).

Reference set, count: 2
COc1ccc(C[C@@H]2NC(=O)[C@H](Cc3ncc[nH]3)NC(=O)[C@H](CC(=O)O)NC(=O)[C@H](Cc3c[nH]c4ccc(F)cc34)NC(=O)[C@H](Cc3c[nH]c4ccc(F)cc34)NC(=O)[C@@H](C)NC(=O)[C@H](Cc3ccc(N=C(N)N)cc3)NC(=O)CCSCc3cccc(c3)CSCCNC(=O)[C@]3(C)CCCN3C2=O)cc1 [Compound 441] (cyclo(D[Ala(imidazol-2-yl)]Y(Me)[αMeP][X4][Phe(4-guanidino)][dA][Trp(5-F)][Trp(5-F)])) : 21 to 50 µM
COc1ccc(C[C@@H]2NC(=O)[C@H]([C@@H](C)O)NC(=O)[C@@H]3CCCN3C(=O)[C@H](Cc3c[nH]c4ccc(F)cc34)NC(=O)[C@H](Cc3c[nH]c4ccc(F)cc34)NC(=O)[C@@H](C)NC(=O)[C@H](CCCCN)NC(=O)CCSCc3cc(Cl)cc(c3)CSC[C@@H](C(N)=O)NC(=O)[C@]3(C)CCCN3C2=O)cc1 [Compound 064] ([Mpa]K[dA][Trp(5-F)][Trp(5-F)]PTY(Me)[αMeP]C-NH2; linker 1-10 via X8) : 1 to 12.1 µM

Now turn to the next compound.
For record NCCCC[C@@H]1NC(=O)CCSCc2cccc(c2)CSC[C@@H](C(N)=O)NC(=O)[C@@H]2CCCN2C(=O)[C@H](Cc2ccc(OCCN)cc2)NC(=O)[C@H](Cc2c[nH]cn2)NC(=O)[C@H](CC(=O)O)NC(=O)[C@H](Cc2c[nH]c3ccc(F)cc23)NC(=O)[C@H](Cc2c[nH]c3ccc(F)cc23)NC(=O)CNC1=O [Compound 265] ([Mpa]KG[Trp(5-F)][Trp(5-F)]DH[AEF]PC-NH2; linker 1-10 via mXylylene) the listed IC50 is 0.1 to 1 µM
